# Tested target: High affinity nerve growth factor receptor (Homo sapiens) (UniProt P04629);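 also: each value is a mean of replicate percent inhibition readings against TRKA kinase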
# Sequence (P04629 33-796 limits assumed): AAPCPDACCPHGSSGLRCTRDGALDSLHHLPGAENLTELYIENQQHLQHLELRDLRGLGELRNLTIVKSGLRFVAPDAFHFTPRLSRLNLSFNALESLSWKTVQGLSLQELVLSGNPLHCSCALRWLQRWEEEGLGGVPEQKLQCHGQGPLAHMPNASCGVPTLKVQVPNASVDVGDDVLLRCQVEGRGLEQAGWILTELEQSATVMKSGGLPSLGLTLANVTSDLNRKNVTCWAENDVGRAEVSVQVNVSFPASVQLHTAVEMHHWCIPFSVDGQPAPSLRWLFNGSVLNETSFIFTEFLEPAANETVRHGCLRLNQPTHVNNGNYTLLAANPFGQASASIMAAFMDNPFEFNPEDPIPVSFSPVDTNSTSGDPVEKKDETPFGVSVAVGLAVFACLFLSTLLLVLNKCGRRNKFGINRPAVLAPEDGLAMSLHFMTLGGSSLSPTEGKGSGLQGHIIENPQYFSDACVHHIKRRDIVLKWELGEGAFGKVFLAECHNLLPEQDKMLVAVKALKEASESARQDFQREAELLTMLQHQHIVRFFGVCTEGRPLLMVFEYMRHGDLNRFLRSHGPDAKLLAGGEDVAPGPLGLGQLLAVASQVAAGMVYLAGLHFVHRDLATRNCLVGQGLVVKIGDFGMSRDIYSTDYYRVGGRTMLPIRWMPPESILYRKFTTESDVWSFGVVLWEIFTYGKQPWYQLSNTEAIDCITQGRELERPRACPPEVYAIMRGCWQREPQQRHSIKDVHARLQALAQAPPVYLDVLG
# Experimental setup: at 0.1 µM
Value kind: inhibition (%)
Report as a plain number; the unit % is understood.

Reference set (3 entries):
INSERT INTO measurements (molecule, tested_target, value_kind, unit_spec, reported_value) VALUES
  ('Nc1ncnc2occ(-c3ccc(NC(=O)Nc4cc(C(F)(F)F)cc(C(F)(F)F)c4)cc3)c12', 'High affinity nerve growth factor receptor (Homo sapiens) (UniProt P04629)', 'inhibition', '%', 37.1),
  ('O=C1NC(=O)C(c2cccc(Cl)c2)=C1Nc1ccc(O)c(Cl)c1', 'High affinity nerve growth factor receptor (Homo sapiens) (UniProt P04629)', 'inhibition', '%', -3.23),
  ('COc1ccc(-c2nn3ncccc3c2-c2ccnc(Nc3ccc(Cl)c(C(F)(F)F)c3)n2)cc1', 'High affinity nerve growth factor receptor (Homo sapiens) (UniProt P04629)', 'inhibition', '%', -2.59);

# molecule Cc1cc(O)cc(C)c1/C=C/c1cncc(-c2nn[nH]n2)c1 ; its inhibition = 3.09

# molecule O=C1NC(=O)C(c2ccccc2Cl)=C1Nc1cccc(O)c1 ; its inhibition = 4.19

# molecule COc1cc2ncn(-c3cc(O[C@H](C)c4ccccc4Cl)c(C(N)=O)s3)c2cc1OC ; its inhibition = 1.31

# molecule COc1cccc(-n2ncc3c(N/N=C/c4cccc(F)c4)ncnc32)c1 ; its inhibition = 3.27

# molecule Nc1nc(-c2ccccn2)c(-c2ccc3ncccc3n2)s1 ; its inhibition = 3.9

# molecule CS(=O)(=O)CCNCc1ccc(-c2ccc3ncnc(Nc4ccc(OCc5ccccc5)c(Cl)c4)c3c2)o1 ; its inhibition = 2.31

---

Let's look at some compounds and their measured inhibition.
# Tested target: Cyclin-dependent kinase 2 (Homo sapiens);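 also: mean inhibition of the CDK2–cyclin A kinase complex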
# Experimental setup: at 1 µM
Report as a plain number; the unit % is understood.

Reference set (5 entries):
INSERT INTO results (smiles_notation, value_kind, reported_value) VALUES
  ('Cc1nnc(-c2ccc(C)c(-c3ccc(C(=O)Nc4cccc(C#N)c4)cc3)c2)o1', 'inhibition', 0.6),
  ('CCn1c(-c2nonc2N)nc2cncc(C(=O)N3CCNCC3)c21', 'inhibition', 2.62),
  ('COc1cc2ncn(-c3cc(OCc4ccccc4Cl)c(C(N)=O)s3)c2cc1OC', 'inhibition', 6.39),
  ('c1cnn2ncc(-c3ccnc(Nc4ccc5c(c4)OCCO5)n3)c2c1', 'inhibition', 86.1),
  ('CC(C)=Cc1cccc2c1/C(=N/Nc1ccc(S(N)(=O)=O)cc1)C(=O)N2', 'inhibition', 92.4);

Pending compound:
# compound CCn1c(-c2nonc2N)nc2ccncc21 ; its inhibition = 4.47

---

# Tested target: Tyrosine-protein kinase FRK (Homo sapiens);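 also: values are mean inhibition of PTK5 (FRK) kinase activity from the GSK PKIS screening set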
# Experimental setup: at 0.1 µM
Value kind: inhibition (%)
Report as a plain number; the unit % is understood.

Reference set (5 entries):
INSERT INTO results (smiles_notation, unit_spec, reported_value) VALUES
  ('CS(=O)(=O)CCNCc1nc(-c2ccc3ncnc(Nc4ccc(F)c(Cl)c4)c3c2)cs1', '%', -0.58),
  ('Cc1ccc(C(=O)NC2CCCCC2)cc1-c1ccc(C(=O)NCC2CC2)cc1', '%', 0.19),
  ('COc1cc2c(cc1Nc1nc(N3CCc4ccccc43)c3cc[nH]c3n1)N(C(=O)CN(C)C)CC2', '%', 0.34),
  ('CCN1CCC(CC(=O)Nc2n[nH]c3nc(-c4cccs4)c(Br)cc23)CC1', '%', -1.17),
  ('COC(=O)Nc1nc2cc(Oc3ccc(NC(=O)Nc4cccc(C(=O)O)c4)cc3)ccc2[nH]1', '%', 0.4);

# compound COC(=O)Nc1nc2cc(Oc3cccc(NC(=O)Nc4cc(C(F)(F)F)ccc4F)c3)ccc2[nH]1 ; its inhibition = -0.02

# compound CN(C)c1cc2c(Nc3ccc4nc(Cc5ccccc5)[nH]c4c3)ncnc2cn1 ; its inhibition = -0.33

# compound O=C1NC(=O)C(N2CCc3ccccc32)=C1c1ccc(Cl)cc1 ; its inhibition = 2.55

# compound COc1ccc(COc2ccc(Cc3cnc(N)nc3N)cc2OC)cc1 ; its inhibition = -0.22

---

# System: Platelet-derived growth factor receptor alpha (Homo sapiens), P16234 [V561D]
# Sequence (P16234 whole entry V561D): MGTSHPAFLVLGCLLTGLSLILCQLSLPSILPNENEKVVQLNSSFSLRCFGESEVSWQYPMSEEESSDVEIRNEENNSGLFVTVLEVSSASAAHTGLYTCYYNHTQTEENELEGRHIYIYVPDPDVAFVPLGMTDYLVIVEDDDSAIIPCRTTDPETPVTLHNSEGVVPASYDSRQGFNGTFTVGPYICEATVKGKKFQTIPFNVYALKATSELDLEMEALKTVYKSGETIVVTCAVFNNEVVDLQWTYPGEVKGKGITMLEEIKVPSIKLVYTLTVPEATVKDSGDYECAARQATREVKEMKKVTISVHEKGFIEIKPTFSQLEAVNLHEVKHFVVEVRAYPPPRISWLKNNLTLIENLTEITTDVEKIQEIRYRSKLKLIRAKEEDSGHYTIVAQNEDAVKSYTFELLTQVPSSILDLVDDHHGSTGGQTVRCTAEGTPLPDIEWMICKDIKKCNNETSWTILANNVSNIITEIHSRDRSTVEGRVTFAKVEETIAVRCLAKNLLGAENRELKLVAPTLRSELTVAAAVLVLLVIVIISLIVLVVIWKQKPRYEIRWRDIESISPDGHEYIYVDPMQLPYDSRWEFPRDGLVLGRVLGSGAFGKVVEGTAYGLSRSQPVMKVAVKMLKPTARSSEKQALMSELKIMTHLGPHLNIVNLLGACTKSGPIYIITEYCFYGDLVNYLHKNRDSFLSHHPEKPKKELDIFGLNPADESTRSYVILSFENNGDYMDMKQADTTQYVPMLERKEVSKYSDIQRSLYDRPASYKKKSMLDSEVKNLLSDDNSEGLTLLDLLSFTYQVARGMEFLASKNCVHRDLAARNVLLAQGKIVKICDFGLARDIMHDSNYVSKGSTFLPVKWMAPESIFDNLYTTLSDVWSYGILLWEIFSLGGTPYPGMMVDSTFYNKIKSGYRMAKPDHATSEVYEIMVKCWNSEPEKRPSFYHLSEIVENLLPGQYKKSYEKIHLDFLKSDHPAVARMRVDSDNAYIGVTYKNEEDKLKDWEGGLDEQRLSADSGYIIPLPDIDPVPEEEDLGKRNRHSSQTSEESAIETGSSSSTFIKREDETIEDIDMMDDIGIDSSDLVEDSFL
# Experimental setup: at 1 µM
Think of 5% as a floor: if inhibition stands on it or above, it is yes; beneath it, no.

INSERT INTO assay_data (compound, discrete_label) VALUES
  ('CCn1c(-c2nonc2N)nc2c(C#CC(C)(C)O)nc(CN3CCCC3)cc21', 'yes'),
  ('[O-][S+]1CCN(Cc2ccc(-c3ccc4ncnc(Nc5ccc(OCc6ccccc6)c(F)c5)c4c3)o2)CC1', 'no'),
  ('CCn1c(-c2nonc2N)nc2cnc(Oc3cccc(NC(=O)c4ccc(OCCN5CCOCC5)cc4)c3)cc21', 'no'),
  ('COc1cc2ncn(-c3cc(OCc4ccccc4Cl)c(C(N)=O)s3)c2cc1OC', 'yes'),
  ('CC1=C(C(=O)Nc2ccc3[nH]ncc3c2)C(c2ccc(F)cc2)NC(=O)N1 (centres undefined)', 'no'),
  ('O=C1NC(=O)C(N2CCc3ccccc32)=C1c1ccc(Cl)cc1', 'yes'),
  ('CCn1c(-c2nonc2N)nc2cncc(C(=O)N3CCNCC3)c21', 'no');

Query string: Has CS(=O)(=O)CCNCc1ccc(-c2ccc3ncnc(Nc4ccc(OCc5cccc(F)c5)c(C(F)(F)F)c4)c3c2)o1 a recorded inhibition greater than or equal to 5%?
Result string: no

---

# Tested target: Aurora kinase A (Homo sapiens) (UniProt O14965);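 also: values are mean percent inhibition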
# Sequence (O14965 whole entry): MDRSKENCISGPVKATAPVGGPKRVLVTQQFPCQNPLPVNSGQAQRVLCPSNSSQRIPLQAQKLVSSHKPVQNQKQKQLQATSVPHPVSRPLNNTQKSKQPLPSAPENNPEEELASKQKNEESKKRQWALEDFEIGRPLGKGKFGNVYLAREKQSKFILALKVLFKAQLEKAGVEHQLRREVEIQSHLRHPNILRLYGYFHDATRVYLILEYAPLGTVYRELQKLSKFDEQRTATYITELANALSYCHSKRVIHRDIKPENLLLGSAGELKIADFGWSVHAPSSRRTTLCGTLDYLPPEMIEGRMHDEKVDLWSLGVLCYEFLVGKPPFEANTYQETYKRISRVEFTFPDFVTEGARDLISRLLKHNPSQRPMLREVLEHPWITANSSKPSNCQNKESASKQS
# Experimental setup: at 1 µM
Let's look at some molecules and their measured inhibition.
Report as a plain number; the unit % is understood.

Reference set (5 entries):
INSERT INTO results (molecule, value_kind, reported_value) VALUES
  ('Cn1cc(C=C2C(=O)Nc3cccnc32)c2ccccc21', 'inhibition', 57),
  ('[O-][S+]1CCN(Cc2ccc(-c3ccc4ncnc(Nc5ccc(OCc6ccccc6)c(F)c5)c4c3)o2)CC1', 'inhibition', 5.78),
  ('N#Cc1c(NC(=O)c2cccc3ccccc23)sc2c1CCCC2', 'inhibition', 5.29),
  ('Nc1ncnc2occ(-c3ccc(NC(=O)Nc4cc(C(F)(F)F)cc(C(F)(F)F)c4)cc3)c12', 'inhibition', 46),
  ('CC1=C(C(=O)Nc2ccc3[nH]ncc3c2)C(c2ccc(Cl)c(Cl)c2)CC(=O)N1 (stereo unspecified)', 'inhibition', 70.2);

# molecule Cc1ccc(NC(=O)c2ccnc(N3CCCC3)c2)cc1-c1ccc(C(=O)NCC2CC2)cc1 ; its inhibition = 4.67

# molecule COc1cc2ncn(-c3cc(OCc4ccccc4Cl)c(C(N)=O)s3)c2cc1OC ; its inhibition = 23.5

# molecule CC1=C(C(=O)Nc2ccc3[nH]ncc3c2)C(c2ccc(F)cc2)NC(=O)N1 (stereo unspecified) ; its inhibition = 62.7

# molecule COc1ccc(-c2ccncc2)cc1C(N)=O ; its inhibition = 4.17

# molecule Cc1nnc(-c2ccc(C)c(-c3ccc(C(=O)Nc4cccc(C#N)c4)cc3)c2)o1 ; its inhibition = 5.96

---

# Tested target: Protein kinase C eta type (Homo sapiens);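 also: values are the mean percent inhibition of PKC-eta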
# Experimental setup: at 0.1 µM
Let's look at some compounds and their measured inhibition.
Include the unit after the number when you answer.

Reference set (3 entries):
INSERT INTO results (compound, reported_value) VALUES
  ('CC1=C(C(=O)Nc2ccc3[nH]ncc3c2)C(c2ccc3ccccc3c2)CC(=O)N1 (centres undefined)', '4.97%'),
  ('COc1cc2ncn(-c3cc(O[C@@H](C)c4ccccc4Cl)c(C(N)=O)s3)c2cc1OC', '5.28%'),
  ('COc1cc2ncn(-c3cc(OCc4ccccc4C(F)(F)F)c(C(N)=O)s3)c2cc1OC', '5.48%');

# compound COc1ccc(-c2coc3ncnc(N)c23)cc1 ; its inhibition = 3.06%

# compound NC(=O)c1ccc(-c2nc(-c3ccccn3)c(-c3ccc4c(c3)OCO4)[nH]2)cc1 ; its inhibition = -0.32%

# compound O=C1NC(=O)C(c2ccc(Cl)cc2)=C1Nc1ccc(Cl)c(C(=O)O)c1 ; its inhibition = -3.26%

# compound CCc1cccc(NC(=O)Nc2ccc(Oc3ccc4nc(NC(=O)OC)[nH]c4c3)cc2)c1 ; its inhibition = 2.69%

# compound CS(=O)(=O)CCN(CC#N)Cc1ccc(-c2ccc3ncnc(Nc4ccc(OCc5cccc(F)c5)c(Cl)c4)c3c2)o1 ; its inhibition = 2.38%

# compound CS(=O)(=O)CCNCc1nc(-c2ccc3ncnc(Nc4ccc(F)c(Cl)c4)c3c2)cs1 ; its inhibition = 1.59%

---

# Tested target: Non-receptor tyrosine-protein kinase TYK2 (Homo sapiens);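 also: values are mean percent inhibition of TYK2 kinase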
# Experimental setup: at 1 µM
Let's look at some compounds and their measured inhibition.
Report as a plain number; the unit % is understood.

Reference set (5 entries):
INSERT INTO measurements (smiles_notation, value_kind, unit_spec, reported_value) VALUES
  ('COc1ccc(-c2nn3ncccc3c2-c2ccnc(Nc3ccc(Cl)c(C(F)(F)F)c3)n2)cc1', 'inhibition', '%', 1.02),
  ('CC(=O)Nc1cccc(C#Cc2cncnc2Nc2ccc(OCc3cccc(F)c3)c(Cl)c2)n1', 'inhibition', '%', 2.39),
  ('Fc1cccc(COc2ccc(Nc3ncnc4sc(-c5cccs5)cc34)cc2Cl)c1', 'inhibition', '%', 1.15),
  ('COc1cc2ncn(-c3cc(OCc4ccccc4C(F)(F)F)c(C(N)=O)s3)c2cc1OC', 'inhibition', '%', -6.76),
  ('COc1cc2ncn(-c3cc(O[C@@H](C)c4ccccc4Cl)c(C(N)=O)s3)c2cc1OC', 'inhibition', '%', -4.63);

# compound COc1cc2ncn(-c3cc(O[C@H](C)c4ccccc4Cl)c(C(N)=O)s3)c2cc1OC ; its inhibition = -0.12

# compound NS(=O)(=O)c1ccc(N/N=C2\C(=O)Nc3ccc(C(=O)NCCc4c[nH]cn4)cc32)cc1 ; its inhibition = 0.3

# compound COc1cc(C)c(NC(=O)CN(C)C)cc1Nc1nc(Nc2cccc(F)c2C(N)=O)c2cc[nH]c2n1 ; its inhibition = -1.61

# compound CS(=O)(=O)Nc1ccc(N/C=C2\C(=O)Nc3ccccc32)cc1 ; its inhibition = 9.24

# compound O=C(Nc1n[nH]c2nc(-c3ccco3)c(Br)cc12)C1CC1 ; its inhibition = -1.51

# compound NCc1ccc(-c2nc(-c3ccc(Cl)c(O)c3)c(-c3ccncc3)[nH]2)cc1 ; its inhibition = -1.84

# compound CC(C)=Cc1cccc2c1/C(=N/Nc1ccc(S(N)(=O)=O)cc1)C(=O)N2 ; its inhibition = 20.7

# compound COc1cccc(-n2ncc3c(N/N=C/c4cccc(F)c4)ncnc32)c1 ; its inhibition = -0.15

# compound O=C1NC(=O)C(c2ccccc2Cl)=C1Nc1cccc(O)c1 ; its inhibition = -2.87

# compound NS(=O)(=O)c1cccc(-c2ccc3c(NC(=O)C4CC4)n[nH]c3c2)c1 ; its inhibition = 1.94
